- Study System: 17-beta-hydroxysteroid dehydrogenase type 1 (Homo sapiens)
- Sequence (P14061 whole entry): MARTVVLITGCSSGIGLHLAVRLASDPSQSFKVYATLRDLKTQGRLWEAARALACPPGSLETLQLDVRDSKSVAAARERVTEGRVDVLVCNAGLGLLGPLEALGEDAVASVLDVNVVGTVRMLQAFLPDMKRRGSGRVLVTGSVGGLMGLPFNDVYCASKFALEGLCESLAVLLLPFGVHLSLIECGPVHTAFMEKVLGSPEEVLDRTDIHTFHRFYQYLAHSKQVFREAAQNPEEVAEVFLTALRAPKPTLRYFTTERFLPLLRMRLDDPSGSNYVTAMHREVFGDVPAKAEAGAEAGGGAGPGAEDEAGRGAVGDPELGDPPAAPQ
- Method Summary: Inhibition of 17beta-HSD1 in human placental cytosolic fraction using E1/NADH as substrate/cofactor after 10 mins by HPLC analysis
- Condition Description: read-out: IC50
Measured Property: pIC50
Give only the number. pIC50 is defined as minus log10 of concentration in molar units.

Note down pIC50 recorded for `Cc1cccc(Oc2ccc(C(=O)N(C)c3cccc(C)c3)cc2)c1`
4.79

Note down pIC50 recorded for `COc1ccc(Oc2ccc(C(=O)N(C)c3cccc(OC)c3)cc2)cc1`
5.02

Note down pIC50 recorded for `Cc1ccc(Oc2ccc(C(=O)N(C)c3cccc(C)c3)cc2)cc1`
4.58

Note down pIC50 recorded for COc1cccc(N(C)C(=O)C2CCC(c3ccc(Cl)cc3)CC2)c1 (centres undefined)
4.22

====

- Study System: 17-beta-hydroxysteroid dehydrogenase type 2 (Homo sapiens) (UniProt P37059)
- Sequence (P37059 whole entry): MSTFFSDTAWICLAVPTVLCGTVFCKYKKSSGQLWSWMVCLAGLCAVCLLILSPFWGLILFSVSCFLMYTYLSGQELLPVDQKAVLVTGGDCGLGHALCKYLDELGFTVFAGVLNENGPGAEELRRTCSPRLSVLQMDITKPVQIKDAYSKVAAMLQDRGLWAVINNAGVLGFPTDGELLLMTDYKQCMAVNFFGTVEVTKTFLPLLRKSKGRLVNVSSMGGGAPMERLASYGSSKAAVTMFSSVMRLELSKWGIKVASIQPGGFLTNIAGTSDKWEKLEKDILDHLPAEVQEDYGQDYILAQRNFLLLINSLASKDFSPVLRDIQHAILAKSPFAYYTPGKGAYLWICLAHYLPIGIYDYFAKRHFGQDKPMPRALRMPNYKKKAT
- Method Summary: Inhibition of 17beta-HSD2 in human placental microsomal fraction using E2/NAD+ as substrate/cofactor at 1 uM after 20 mins by HPLC analysis
- Condition Description: Placenta
The source made the active and inactive calls. The calls are words filed in the database; no cut-off is given here.
Measured Property: inhibition

Below: 8 compounds and their reported inhibition.
Mol: Cc1cccc(N(C)C(=O)c2ccc(Oc3ccccc3)cc2)c1
Study System: 17-beta-hydroxysteroid dehydrogenase type 2 (Homo sapiens) (UniProt P37059)
inhibition: 59%

Mol: COc1cccc(S(=O)(=O)N2CCN(c3ccc(F)c(OC)c3)CC2)c1
Study System: 17-beta-hydroxysteroid dehydrogenase type 2 (Homo sapiens) (UniProt P37059)
inhibition: 15%

Mol: Cc1ccc(N2CCN(C(=O)c3cccc(O)c3)CC2)cc1
Study System: 17-beta-hydroxysteroid dehydrogenase type 2 (Homo sapiens) (UniProt P37059)
inhibition: inactive

Mol: COc1cccc(N(C)C(=O)c2ccc(Oc3ccc([N+](=O)[O-])cc3)cc2)c1
Study System: 17-beta-hydroxysteroid dehydrogenase type 2 (Homo sapiens) (UniProt P37059)
inhibition: 43%

Mol: O=S(=O)(c1cccc(O)c1)N1CCN(c2ccc(F)c(O)c2)CC1
Study System: 17-beta-hydroxysteroid dehydrogenase type 2 (Homo sapiens) (UniProt P37059)
inhibition: 48%

Mol: CN(C(=O)c1ccc(Oc2ccc(O)cc2)cc1)c1cccc(O)c1
Study System: 17-beta-hydroxysteroid dehydrogenase type 2 (Homo sapiens) (UniProt P37059)
inhibition: 43%

Mol: Cc1cccc(N2CCN(C(=O)c3cccc(O)c3)CC2)c1
Study System: 17-beta-hydroxysteroid dehydrogenase type 2 (Homo sapiens) (UniProt P37059)
inhibition: 16%

Mol: COc1cccc(N(C)C(=O)c2ccc(Oc3ccc(Cl)cc3)cc2)c1
Study System: 17-beta-hydroxysteroid dehydrogenase type 2 (Homo sapiens) (UniProt P37059)
inhibition: 51%

Note down inhibition recorded for `O=S(=O)(c1cccc(O)c1)N1CCN(c2cccc(O)c2)CC1`
25%

Note down inhibition recorded for `COc1cccc(C(=O)N2CCN(c3cccc(C)c3)CC2)c1`
inactive

Note down inhibition recorded for `Cc1cccc(N2CCN(S(=O)(=O)c3cccc(O)c3)CC2)c1`
27%

Note down inhibition recorded for `COc1cccc(C(=O)N2CCN(c3cccc(OC)c3)CC2)c1`
inactive

Note down inhibition recorded for `COc1cccc(C(=O)N2CCN(c3ccc(C)cc3)CC2)c1`
16%

Data origin, for the record: ChEMBL document CHEMBL3739412
